Here, each record is paired with measured Enzyme Activity Endpoint Assay: IgG data.
Molecular target: pooled human IgG (human IgG1, 2, 3 and 4) (human); further: test concentration or dose not given here
Experiment: cell-based or functional assay
property-measured: Enzyme Activity Endpoint Assay: IgG

binder: PRT-427 (enzyme) MTITSVWTKGVTPPTPEDFRYNNEDVLHAPYVANQGWYDITKTFDGKDNLLCGAATAGNMLHWWFDQNKEEIERYLKKHPEKQKIIFNNQELFDVKAAIDTKDSQTNSKLFNYFRDKAFPNLSARQLGVMPDLVLDMFINGYYLNLGKTQSTDVNRPYQDKDKRGGIFDAVFTRGVQTTLLTARHDLKNKGLNEISDLIKQELTEGKALALSHTYANVRINHVINLWGADFDAEGNLIAIYVTDSDANASIGMKKYFVGVNANGKVAISAKKIEGDNIGAQVLGLFTLSTGQDIWQKLS
property-measured: Enzyme Activity Endpoint Assay: IgG
value-reported: 135 ng/µL

binder: PRT-402 (enzyme) MVTSVWTKGVTPPADFTQGEDVFHAPYVANQGWYDITKTFNGKDDLLCGAATAGNMLHWWFDQNKEYIEAYLKKHPEKQKIMFGDQELLDVRKAINTKGSQKNSELFNYFRDKAFPNLSARRLGVMPDLVLDMFINGYYLNVTKTQTTDVNRTYQEKDKRGGIFDAVFTRGDQSKLLTSRHDFKEKGLKEISDLIKQELTEGKALGLSHTYANVRLNHVINLWGADFDSDGNLKAIYVTDSDSNASIGMKKYFVGVNSAGKVAISAKEIKEDNIGAQVLGLFTLSTGQDIWNQTN
property-measured: Enzyme Activity Endpoint Assay: IgG
value-reported: 0 ng/µL

binder: PRT-411 (enzyme) MVTSVWTKGVTPPADFTQGEDVFHAPYVANQGWYDITKTFNGKDDLLCGAATAGNMLHWWFDQNKEYIEAYLKKHPEKQKIMFGDQELLDVRKAINTKGSQKNSELFNYFRDKAFPNLSARRLGVMPDLVLDMFINGYYLNVTKTQTTDVNRTYQEKDKRGGIFDAVFTRGDQSKLLTSRHDFKEKGLKEISDLIKQELTEGKALGLSHTYANVRINHVINLWGADFDSDGNLKAIYVTDSDSRASIGMKKYFVGVNSAGKVAISAKEIKEDNIGAQVLGLFTLSTGQDIWNQTN
property-measured: Enzyme Activity Endpoint Assay: IgG
value-reported: 90 ng/µL

binder: PRT-288 (enzyme) MVTSVWTKGVTPPAKFTQGEDVFHAPYDANQGWYDITKEFNGKDDLLCGAATAGNMLHWWFDQNKEKIEAYLKKHPDKQKIMFGDQELLDVRKVINTKGDQTNSELFNYFRDKAFPNLSARRIGVMPDLVLDMFINGYYLNVYKTQTTDVNRTYQEKDRRGGIFDAVFTRGDQSKLLTSRHDFKEKNLKEISDLIKKELTEGKALGLSHTYANVRIGHVINLWGADFDSNGNLKAIYVTDSDSNASIGMKKYGVGVNSAGKVAISAKEIKEDNIGAQVLGLFTLSTGQDSWNQTN
property-measured: Enzyme Activity Endpoint Assay: IgG
value-reported: 348 ng/µL
